Where do these numbers come from? They come from ChEMBL document CHEMBL1141241.

# assay.system: Prothrombin (Homo sapiens) (UniProt P00734)
# condition.label: at 2 µM
# Description: Inhibitory activity against human thrombin at 2 uM
reported.property: residual activity (%)

INSERT INTO assay_data (molecule_smiles, measured_number) VALUES
  ('O=C(Oc1cccc([N+](=O)[O-])c1)c1cc2cc(CCl)ccc2oc1=O', 80),
  ('O=C(Oc1cc(Cl)cc(Cl)c1)c1cc2cc(CCl)ccc2oc1=O', 102),
  ('O=C(Oc1ccc2ccccc2c1)c1cc2cc(CCl)ccc2oc1=O', 109),
  ('Cc1ccccc1OC(=O)c1cc2cc(CCl)ccc2oc1=O', 79),
  ('Cc1cccc(OC(=O)c2cc3cc(CCl)ccc3oc2=O)c1', 35),
  ('O=C(Oc1cccc(F)c1)c1cc2cc(CCl)ccc2oc1=O', 24),
  ('O=C(Oc1cccc(C(F)(F)F)c1)c1cc2cc(CCl)ccc2oc1=O', 66),
  ('O=C(Oc1cccc(I)c1)c1cc2cc(CCl)ccc2oc1=O', 27),
  ('Cc1ccc(OC(=O)c2cc3cc(CCl)ccc3oc2=O)cc1', 111),
  ('O=C(Oc1cccnc1)c1cc2cc(CCl)ccc2oc1=O', 113),
  ('O=C(c1cccc(Cl)c1)c1cc2cc(CCl)ccc2oc1=O', 100),
  ('O=C(Oc1cccc2ccccc12)c1cc2cc(CCl)ccc2oc1=O', 115),
  ('O=C(Oc1cccc(Br)c1)c1cc2cc(CCl)ccc2oc1=O', 8),
  ('O=C(Nc1cccc(Cl)c1)c1cc2cc(CCl)ccc2oc1=O', 97),
  ('CC(=O)OCc1ccc2oc(=O)c(C(=O)Oc3cccc(Cl)c3)cc2c1', 91),
  ('O=C(Oc1cccc(Cl)c1Cl)c1cc2cc(CCl)ccc2oc1=O', 100),
  ('O=C(Oc1ccccc1I)c1cc2cc(CCl)ccc2oc1=O', 59),
  ('O=C(Oc1cccc(Cl)c1)c1cc2ccccc2oc1=O', 107),
  ('O=C(Oc1ccc2ncccc2c1)c1cc2cc(CCl)ccc2oc1=O', 98),
  ('Cc1ccc2oc(=O)c(C(=O)Oc3cccc(Cl)c3)cc2c1', 70),
  ('O=C(Oc1ccc(I)cc1)c1cc2cc(CCl)ccc2oc1=O', 99),
  ('COc1cc(Cl)cc(OC(=O)c2cc3cc(CCl)ccc3oc2=O)c1', 103),
  ('O=C(Oc1c(Cl)cccc1Cl)c1cc2cc(CCl)ccc2oc1=O', 101),
  ('COc1cccc(OC(=O)c2cc3cc(CCl)ccc3oc2=O)c1', 66),
  ('O=C(Oc1ccccn1)c1cc2cc(CCl)ccc2oc1=O', 100),
  ('O=C(Oc1ccc(Cl)cc1)c1cc2cc(CCl)ccc2oc1=O', 107),
  ('O=C(Oc1cccc2cccnc12)c1cc2cc(CCl)ccc2oc1=O', 107);
